# Test system: Vero, African Green monkey kidney cells
# particulars: read-out: CC50 Vero; mock-infected Vero cells, MTS assay
property.name: CC50

// lookup CC50 for CCCCSC1=C(SCCCC)C(=O)N(CCOCCOCCOCCOCc2cn(C3C(=O)NC(CC(N)=O)C(=O)NC4C(=O)NC5C(=O)NC(C(=O)NC(C(=O)O)c6cc(O)cc(O)c6-c6cc5ccc6O)C(O)c5ccc(c(Cl)c5)Oc5cc4cc(c5O)Oc4ccc(cc4Cl)C3O)nn2)C1=O (centres unmarked)
> 100 µM

// lookup CC50 for CCCCCCCCCCOCc1cn(CCOCCOCCOCCOCc2cn(C3C(=O)NC(CC(N)=O)C(=O)NC4C(=O)NC5C(=O)NC(C(=O)NC(C(=O)O)c6cc(O)cc(O)c6-c6cc5ccc6O)C(O)c5ccc(c(Cl)c5)Oc5cc4cc(c5O)Oc4ccc(cc4Cl)C3O)nn2)nn1 (centres unmarked)
> 100 µM
